Assay: MRC5 toxicity assay
Format: cell-based, human
Conditions: human, MRC-5 human fetal lung fibroblast cells, MRC-5 cells, 96-h incubation, mean of triplicate; read-out: Cytotoxicity IC50 on MRC-5 cells
recorded endpoint: IC50 at 96 h (µM)
Quick note: give the figure in µM, leave out the unit.

Example results:
compound	IC50 at 96 h (µM)
Cc1cn(CC(O)(Cn2cncn2)c2ccc(F)cc2F)c2ccccc12 (stereo not drawn) [Compound 11h]	105
OC(Cn1ccnc1)(Cn1ccc2ccccc21)c1ccc(F)cc1 (stereo not drawn) [Compound 8a]	50
OC(Cn1ccnc1)(Cn1ccc2ccccc21)c1ccc(C(F)(F)F)cc1 (stereo not drawn) [Compound 11e]	36
O[C@@](Cn1cncn1)(Cn1ccc2ccccc21)c1ccc(Cl)cc1Cl [(+)-(R)-8g]	32
Cc1cc2ccccc2n1CC(O)(Cn1cncn1)c1ccc(Cl)cc1Cl (stereo not drawn) [Compound 11g]	157
Cc1c(C)n(CC(O)(Cn2cncn2)c2ccc(F)cc2F)c2ccccc12 (stereo not drawn) [Compound 11j]	25
OC(Cn1cncn1)(Cn1ccc2ccccc21)c1ccc(C(F)(F)F)cc1 (stereo not drawn) [Compound 8f]	76
Cc1cn(CC(O)(Cn2cncn2)c2ccc(Cl)cc2Cl)c2ccccc12 (stereo not drawn) [Compound 11i]	19

Looking for the measured IC50 at 96 h of OC(Cn1cncn1)(Cn1ccc2ccccc21)c1ccc(Br)cc1 (stereo not drawn) [Compound 11c] , can you help? 38

Looking for the measured IC50 at 96 h of OC(Cn1ccnc1)(Cn1ccc2ccccc21)c1ccc(Br)cc1 (stereo not drawn) [Compound 8c] , can you help? 31

----------
Molecular target: 17α-hydroxylase/17,20-lyase (CYP17) (Homo sapiens, UniProt P05093)
Sequence (P05093 1-508): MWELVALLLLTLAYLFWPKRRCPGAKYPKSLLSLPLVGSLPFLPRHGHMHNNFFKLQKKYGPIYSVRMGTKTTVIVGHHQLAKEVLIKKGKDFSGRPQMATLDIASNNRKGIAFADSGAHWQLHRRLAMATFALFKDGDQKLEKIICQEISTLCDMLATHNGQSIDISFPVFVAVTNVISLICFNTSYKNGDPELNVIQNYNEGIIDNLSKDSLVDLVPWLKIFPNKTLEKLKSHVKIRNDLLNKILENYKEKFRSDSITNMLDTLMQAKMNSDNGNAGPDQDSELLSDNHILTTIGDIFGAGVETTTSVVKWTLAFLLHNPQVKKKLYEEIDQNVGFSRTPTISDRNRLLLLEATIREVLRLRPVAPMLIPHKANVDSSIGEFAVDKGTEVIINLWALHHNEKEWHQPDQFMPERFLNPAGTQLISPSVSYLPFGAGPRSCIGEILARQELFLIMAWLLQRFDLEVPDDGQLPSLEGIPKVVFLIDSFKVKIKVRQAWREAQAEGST
Assay: In vitro inhibition of 17α-hydroxylase/17,20-lyase
Conditions: mean of two experiments in duplicate
recorded endpoint: IC50
Put your answer as a value accompanied by its unit after it.

Looking for the measured IC50 of COc1ccc2c(c1)CCC(Cc1cnc[nH]1)=C2C [BW19, reference compound] , can you help? 150 nM

----------
Reported values of melting point for individual entries

Example results:
molecule	melting point
OC(Cn1ccnc1)(Cn1ccc2ccccc21)c1ccc(F)cc1F (stereo not drawn)	166 to 168 °C
OC(Cn1cncn1)(Cn1ccc2ccccc21)c1ccc(Cl)cc1Cl (stereo not drawn)	161 to 162 °C
OC(Cn1cncn1)(Cn1ccc2ccccc21)c1ccc(C(F)(F)F)cc1 (stereo not drawn)	165 to 168 °C
OC(Cn1ccnc1)(Cn1ccc2ccccc21)c1ccc(Cl)cc1Cl (stereo not drawn)	212 to 213 °C
OC(Cn1cncn1)(Cn1ccc2ccccc21)c1ccc(Br)cc1 (stereo not drawn) [Compound 11c]	186 to 187 °C
Cc1cn(CC(O)(Cn2cncn2)c2ccc(F)cc2F)c2ccccc12 (stereo not drawn) [Compound 11h]	112 to 113 °C
Cc1c(C)n(CC(O)(Cn2cncn2)c2ccc(Cl)cc2Cl)c2ccccc12 (stereo not drawn) [Compound 11k]	123 to 124 °C
OC(Cn1ccnn1)(Cn1ccc2ccccc21)c1ccc(Cl)cc1Cl (stereo not drawn) [Compound 11l]	210 to 211 °C
OC(Cn1ccnc1)(Cn1ccc2ccccc21)c1ccc(C(F)(F)F)cc1 (stereo not drawn) [Compound 11e]	246 to 247 °C
Cc1cn(CC(O)(Cn2cncn2)c2ccc(Cl)cc2Cl)c2ccccc12 (stereo not drawn) [Compound 11i]	161 to 162 °C

Looking for the measured melting point of OC(Cn1cncn1)(Cn1ccc2ccccc21)c1ccc(Cl)cc1 (stereo not drawn) [Compound 11b] , can you help? 188 to 189 °C

Looking for the measured melting point of OC(Cn1ccnc1)(Cn1ccc2ccccc21)c1ccc(Cl)cc1 (stereo not drawn) , can you help? 201 to 202 °C

Looking for the measured melting point of Cc1cc2ccccc2n1CC(O)(Cn1cncn1)c1ccc(Cl)cc1Cl (stereo not drawn) [Compound 11g] , can you help? 170 to 171 °C

Looking for the measured melting point of OC(Cn1cncn1)(Cn1ccc2ccccc21)c1ccc(F)cc1F (stereo not drawn) [Compound 11d] , can you help? 119 to 120 °C

Looking for the measured melting point of Cc1cc2ccccc2n1CC(O)(Cn1cncn1)c1ccc(F)cc1F (stereo not drawn) [Compound 11f] , can you help? 125 to 126 °C
